Origin of measurements: PubChem BioAssay

Reported values of growth inhibition for individual entries
test.description: Restrictive medium S. cerevisiae growth inhibition, OD615, pilot screen of yeast lifespan reduction project, restrictive growth control (AID 706);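 also: modified DeaD lifespan yeast strain shifted to restrictive glucose medium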
experimental.conditions: OD615, 48 h, at 10 µM, active compounds read high
Give the number; % is assumed, so skip it.

Please review the entries below; each comes with its answer.
{"compound": "Cn1nnnc1SCC(=O)c1ccco1", "growth inhibition, %": -1}
{"compound": "COc1cc(S(=O)(=O)N2CCCCCC2)c(OC)cc1Br", "growth inhibition, %": -10.7}
{"compound": "COc1ccccc1CNC(=O)CCS(=O)(=O)c1cccs1", "growth inhibition, %": -3.45}

Query block: Record request: growth inhibition value, item "CCOC(=O)N1CCN(S(=O)(=O)c2cc(Br)cc3c2N(C(=O)C2CC2)CC3)CC1"
Result block: 7.68

Query block: Record request: growth inhibition value, item O=C(Nc1ccc(S(=O)(=O)N2CCOCC2)cc1)C1COc2ccccc2O1 (stereo unspecified)
Result block: -3.29

* * *

test.description: viability gain of MRP-1-high H69AR cells under doxorubicin, pilot screen, MRP-1 activator project, CellTiter-Glo, duplicate (AID 807);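 also: compound pretreatment 18-22 h then 72 h combined with doxorubicin; 0% = doxorubicin alone and 100% = vehicle without doxorubicin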
experimental.conditions: H69AR viability with doxorubicin, CellTiter-Glo luminescence; at 10 µM; active compounds read high
parameter: viability increase (%)
Give the number; % is assumed, so skip it.

Please review the entries below; each comes with its answer.
{"compound": "O=C(Nc1nc2c(s1)CCCC2)c1ccc2ncsc2c1", "result.value": -2.76}
{"compound": "CCOC(=O)c1c(NC(=O)CN2CCCCC2)sc2c1CCCC2O (stereo not given)", "result.value": -4.26}
{"compound": "CC(=O)c1ccc(N2CCN(C(=O)c3ccc(NC(=O)C4CCCO4)cc3)CC2)cc1 (stereo not given)", "result.value": -3}
{"compound": "CCCCCn1c(CNC(=O)COC)nc2ccccc21", "result.value": -2.9}

Query block: Record request: viability increase value, item "Cn1c(=O)oc2cc(S(=O)(=O)NCc3ccco3)ccc21"
Result block: -4.38

Query block: Record request: viability increase value, item "COc1ccccc1C(=O)Nc1ccc2c(c1)OCO2"
Result block: -3.95

Query block: Record request: viability increase value, item "CCn1c(=O)cc(C(=O)OC)sc1=Nc1ccc(F)c(F)c1"
Result block: -8.26

Query block: Record request: viability increase value, item "O=C(CCCN1C(=O)c2ccccc2C1=O)Nc1ccccc1C(=O)N1CCOCC1"
Result block: 0.44

Query block: Record request: viability increase value, item "COc1ccc(NC(=O)c2cc3ccccn3n2)cc1"
Result block: -0.18

Query block: Record request: viability increase value, item "Cc1cc(NS(=O)(=O)c2ccccc2)cc(Cl)c1O"
Result block: -2.8

Query block: Record request: viability increase value, item "CCCOc1ccc(C(=O)Nc2cc(-c3nn4c(C)nnc4s3)ccc2C)cc1"
Result block: -3.69

Query block: Record request: viability increase value, item "O=C(Nc1nnc(CC(=O)N2CCCC2)s1)c1cnccn1"
Result block: -1.2

Query block: Record request: viability increase value, item "CCSc1oc(-c2ccco2)nc1S(=O)(=O)c1ccc(F)cc1"
Result block: -3.11

Query block: Record request: viability increase value, item CC(=O)Nc1nc2n(n1)C(c1ccccc1)C=C(c1ccccc1)N2 (stereo not given)
Result block: -2.94
